Procedure summary: AUC (0 to 24 hrs) in Sprague-Dawley rat at 5 mg/kg, po
Assay type: ADME, organism-based
Parameters: time < 24 hr, dose 5 mg/kg, route oral
Test settings: plasma
Measured parameter: AUC(0-t) at 24 h (µM·h)
Numeric only. Scale: µM·h

Briefly, AUC(0-t) at 24 h measured for CC1(CCCc2cc(=O)oc3[nH]c(=O)[nH]c(=O)c23)CC1 : 7.6

---

Procedure summary: AUC (0 to 24 hrs) in beagle dog at 1 mg/kg, po
Assay type: ADME, organism-based, Canis lupus familiaris
Design: time < 24 hr, dose 1 mg/kg, route oral
Test settings: plasma
Measured parameter: AUC(0-t) at 24 h
Numeric answer plus unit only.

Briefly, AUC(0-t) at 24 h measured for CC1(CCCc2cc(=O)oc3[nH]c(=O)[nH]c(=O)c23)CC1 [SCH-900271] : 7.2 µM·h

---

Target or system: Hydroxycarboxylic acid receptor 2 (Mus musculus, UniProt Q9EP66)
Sequence (Q9EP66 whole entry): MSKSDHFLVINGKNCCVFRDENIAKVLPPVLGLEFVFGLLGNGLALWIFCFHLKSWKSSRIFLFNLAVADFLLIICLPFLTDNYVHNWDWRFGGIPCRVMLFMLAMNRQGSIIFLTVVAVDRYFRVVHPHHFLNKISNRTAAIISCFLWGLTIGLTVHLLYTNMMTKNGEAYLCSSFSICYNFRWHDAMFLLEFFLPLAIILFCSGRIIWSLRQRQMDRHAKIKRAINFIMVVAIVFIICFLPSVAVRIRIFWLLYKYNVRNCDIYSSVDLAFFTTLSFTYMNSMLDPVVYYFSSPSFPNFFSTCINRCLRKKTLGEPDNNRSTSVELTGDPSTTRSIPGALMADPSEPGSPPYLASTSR
Procedure summary: Agonist activity at mouse GPR109a
Measured parameter: EC50 (nM)
Numeric only. Scale: nM

Briefly, EC50 measured for O=c1[nH]c(=O)c2c(CCCC(F)F)cc(=O)oc2[nH]1 : 5

Briefly, EC50 measured for CCCCc1cc(=O)oc2[nH]c(=O)[nH]c(=O)c12 : 12

Briefly, EC50 measured for CC1(CCCc2cc(=O)oc3[nH]c(=O)[nH]c(=O)c23)CC1 : 6

Briefly, EC50 measured for O=c1[nH]c(=O)c2c(CCC3CCC3)cc(=O)oc2[nH]1 : 4

---

Target or system: Cytochrome P450 2C9 (Homo sapiens)
Sequence (P11712 whole entry): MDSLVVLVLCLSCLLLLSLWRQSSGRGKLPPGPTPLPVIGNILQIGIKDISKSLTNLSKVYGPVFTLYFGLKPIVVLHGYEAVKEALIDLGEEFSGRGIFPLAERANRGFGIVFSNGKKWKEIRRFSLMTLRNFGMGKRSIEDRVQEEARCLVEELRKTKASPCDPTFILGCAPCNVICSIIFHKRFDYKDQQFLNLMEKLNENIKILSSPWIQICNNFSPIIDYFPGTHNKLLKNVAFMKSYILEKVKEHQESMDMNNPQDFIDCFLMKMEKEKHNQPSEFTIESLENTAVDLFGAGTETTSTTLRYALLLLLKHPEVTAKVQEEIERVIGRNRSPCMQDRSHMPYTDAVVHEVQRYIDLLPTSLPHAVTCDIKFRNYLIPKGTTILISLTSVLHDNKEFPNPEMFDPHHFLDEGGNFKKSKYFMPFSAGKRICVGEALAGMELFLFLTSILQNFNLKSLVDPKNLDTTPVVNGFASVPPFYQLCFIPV
Measured parameter: IC50

Briefly, IC50 measured for CC1(CCCc2cc(=O)oc3[nH]c(=O)[nH]c(=O)c23)CC1 [SCH-900271] : > 50 µM

---

Target or system: Hydroxycarboxylic acid receptor 2 (Rattus norvegicus)
Sequence (Q80Z39 whole entry): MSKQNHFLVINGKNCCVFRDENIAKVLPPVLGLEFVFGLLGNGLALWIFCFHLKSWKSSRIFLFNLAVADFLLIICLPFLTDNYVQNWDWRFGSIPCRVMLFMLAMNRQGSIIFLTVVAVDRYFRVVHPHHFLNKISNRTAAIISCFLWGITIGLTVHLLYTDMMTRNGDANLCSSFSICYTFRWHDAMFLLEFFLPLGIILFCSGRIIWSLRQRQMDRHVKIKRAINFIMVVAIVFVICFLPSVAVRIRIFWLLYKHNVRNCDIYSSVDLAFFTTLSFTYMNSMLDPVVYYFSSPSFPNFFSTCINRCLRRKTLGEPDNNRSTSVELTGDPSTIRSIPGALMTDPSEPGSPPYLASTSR
Procedure summary: Agonist activity at rat GPR109a
Can you tell me EC50 for the items I'm about to list?
Numeric only. Scale: nM

Briefly, EC50 measured for O=c1[nH]c(=O)c2c(CCCC3CC3)cc(=O)oc2[nH]1 : 2

Briefly, EC50 measured for O=c1[nH]c(=O)c2c(CCCC(F)F)cc(=O)oc2[nH]1 : 2

Briefly, EC50 measured for O=c1[nH]c(=O)c2c(CCC3CCC3)cc(=O)oc2[nH]1 : 5

Briefly, EC50 measured for CCCCc1cc(=O)oc2[nH]c(=O)[nH]c(=O)c12 : 8

Briefly, EC50 measured for CC1(CCCc2cc(=O)oc3[nH]c(=O)[nH]c(=O)c23)CC1 : 8

---

Procedure summary: Oral bioavailability in beagle dog at 1 mg/kg
Assay type: ADME, organism-based, Canis lupus familiaris
Test settings: in vivo
Measured parameter: bioavailability (%)
Numeric only. Scale: %

Briefly, bioavailability measured for CC1(CCCc2cc(=O)oc3[nH]c(=O)[nH]c(=O)c23)CC1 [SCH-900271] : 40

---

Can you tell me EC50 for the items I'm about to list?
Target or system: Hydroxycarboxylic acid receptor 3 (Homo sapiens)
Sequence (P49019 whole entry): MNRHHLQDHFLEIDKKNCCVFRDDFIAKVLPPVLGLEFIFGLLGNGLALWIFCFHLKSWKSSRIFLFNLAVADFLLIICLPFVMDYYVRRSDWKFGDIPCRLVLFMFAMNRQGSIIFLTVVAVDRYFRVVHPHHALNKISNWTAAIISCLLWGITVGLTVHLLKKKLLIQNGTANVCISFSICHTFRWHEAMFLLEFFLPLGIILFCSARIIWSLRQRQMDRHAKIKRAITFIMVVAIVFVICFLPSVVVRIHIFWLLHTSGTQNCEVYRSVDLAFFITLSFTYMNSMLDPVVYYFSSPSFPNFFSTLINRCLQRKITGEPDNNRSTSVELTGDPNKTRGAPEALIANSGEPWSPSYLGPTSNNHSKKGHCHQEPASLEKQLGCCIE
Procedure summary: Agonist activity at human GPR109b
Assay type: functional
Numeric only. Scale: nM

Response field EC50 (Hydroxycarboxylic acid receptor 3 (Homo sapiens)) for item CC1(CCCc2cc(=O)oc3[nH]c(=O)[nH]c(=O)c23)CC1 : 96

Response field EC50 (Hydroxycarboxylic acid receptor 3 (Homo sapiens)) for item O=c1[nH]c(=O)c2c(CCCC3CC3)cc(=O)oc2[nH]1 : 140

Response field EC50 (Hydroxycarboxylic acid receptor 3 (Homo sapiens)) for item CCCCc1cc(=O)oc2[nH]c(=O)[nH]c(=O)c12 : 190

Response field EC50 (Hydroxycarboxylic acid receptor 3 (Homo sapiens)) for item CC(C)CCc1cc(=O)oc2[nH]c(=O)[nH]c(=O)c12 : 1300

Response field EC50 (Hydroxycarboxylic acid receptor 3 (Homo sapiens)) for item O=c1[nH]c(=O)c2c(CCCC(F)F)cc(=O)oc2[nH]1 : 59

Response field EC50 (Hydroxycarboxylic acid receptor 3 (Homo sapiens)) for item O=c1[nH]c(=O)c2c(CCC3CCC3)cc(=O)oc2[nH]1 : 67
